target-desc: GAT-1 (Macaca mulatta)
Construct: from tissue; host or cells: brain of living rhesus monkeys (in vivo PET)
Sequence (H9ELS5 1-599): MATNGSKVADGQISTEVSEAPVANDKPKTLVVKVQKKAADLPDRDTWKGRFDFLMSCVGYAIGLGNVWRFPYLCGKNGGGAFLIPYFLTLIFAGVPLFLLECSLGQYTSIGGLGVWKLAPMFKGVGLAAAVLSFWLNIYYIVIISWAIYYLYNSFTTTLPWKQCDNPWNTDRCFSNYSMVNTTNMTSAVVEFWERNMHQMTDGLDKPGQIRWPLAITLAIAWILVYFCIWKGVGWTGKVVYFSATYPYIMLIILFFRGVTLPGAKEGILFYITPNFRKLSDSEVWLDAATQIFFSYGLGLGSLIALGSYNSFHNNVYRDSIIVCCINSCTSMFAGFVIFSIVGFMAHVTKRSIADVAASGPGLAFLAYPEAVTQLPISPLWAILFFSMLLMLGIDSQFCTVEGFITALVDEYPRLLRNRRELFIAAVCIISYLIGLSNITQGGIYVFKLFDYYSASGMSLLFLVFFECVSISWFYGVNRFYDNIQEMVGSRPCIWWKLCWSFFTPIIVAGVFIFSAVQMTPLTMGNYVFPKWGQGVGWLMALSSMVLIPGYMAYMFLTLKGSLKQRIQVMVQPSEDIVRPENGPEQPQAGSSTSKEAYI
procedure-text: PET brain imaging with kinetic modeling (1TCM), baseline and tiagabine blocking scans
Format: in vivo, rhesus monkeys (Macaca mulatta)
stated-conditions: 1TCM, baseline
Listed below: Median VT across ROIs values for each entry.
readout-type: Median VT across ROIs (mL/cm^3)

- Cc1ccccc1C(=CCCN1CCCC(C(=O)O)C1)c1ccccc1[18F] (stereo not shown) [^18F-GATT-44]: 3.5
- Cc1ccccc1C(=COCCN1CCCC(C(=O)O)C1)c1ccccc1[18F] (stereo not shown) [^18F-GATT-31]: 2.8
- O=C(O)C1CCCN(CCC=C(c2ccccc2[18F])c2ccccc2Cl)C1 (stereo not shown) [^18F-GATT-39]: 1.6
- Cc1ccccc1C(=COCCN1CCCC(C(=O)O)C1)c1ccc([18F])cc1 (stereo not shown) [^18F-GATT-34]: 1.5

====

procedure-text: Metabolite analysis of arterial plasma (unmetabolized parent fraction), column-switching HPLC
Format: in vivo, rhesus monkeys (Macaca mulatta)
stated-conditions: 30 min, mean ± SD
readout-type: Parent compound

• O=C(O)C1CCCN(CCC=C(c2ccccc2[18F])c2ccccc2Cl)C1 (stereo not shown) [^18F-GATT-39] = 95 ± 4%
• Cc1ccccc1C(=COCCN1CCCC(C(=O)O)C1)c1ccc([18F])cc1 (stereo not shown) [^18F-GATT-34] = 91 ± 2%
• Cc1ccccc1C(=CCCN1CCCC(C(=O)O)C1)c1ccccc1[18F] (stereo not shown) [^18F-GATT-44] = 88 ± 4%
• Cc1ccccc1C(=COCCN1CCCC(C(=O)O)C1)c1ccccc1[18F] (stereo not shown) [^18F-GATT-31] = 87 ± 3%

====

Listed below: Free fraction values for each entry.
procedure-text: Plasma free fraction (fp), ultrafiltration method
Type: in vitro ADME, rhesus monkeys (Macaca mulatta)
stated-conditions: measured in triplicate per scan, mean ± SD
readout-type: Free fraction (%)

- O=C(O)C1CCCN(CCC=C(c2ccccc2[18F])c2ccccc2Cl)C1 (stereo not shown) [^18F-GATT-39]: 10.5
- Cc1ccccc1C(=COCCN1CCCC(C(=O)O)C1)c1ccc([18F])cc1 (stereo not shown) [^18F-GATT-34]: 10.8
- Cc1ccccc1C(=COCCN1CCCC(C(=O)O)C1)c1ccccc1[18F] (stereo not shown) [^18F-GATT-31]: 12.4
- Cc1ccccc1C(=CCCN1CCCC(C(=O)O)C1)c1ccccc1[18F] (stereo not shown) [^18F-GATT-44]: 13.5

====

target-desc: GAT-1 (Macaca mulatta)
Construct: from tissue; host or cells: brain of living rhesus monkeys (in vivo PET)
procedure-text: PET brain imaging with kinetic modeling (1TCM), baseline and tiagabine blocking scans
Format: in vivo, rhesus monkeys (Macaca mulatta)
stated-conditions: 1TCM, after blocking with tiagabine 0.5 mg/kg
readout-type: Median VT across ROIs

* Cc1ccccc1C(=COCCN1CCCC(C(=O)O)C1)c1ccccc1[18F] (stereo not shown) [^18F-GATT-31] | 1.5 mL/cm^3
* Cc1ccccc1C(=COCCN1CCCC(C(=O)O)C1)c1ccc([18F])cc1 (stereo not shown) [^18F-GATT-34] | 1.3 mL/cm^3
* O=C(O)C1CCCN(CCC=C(c2ccccc2[18F])c2ccccc2Cl)C1 (stereo not shown) [^18F-GATT-39] | 0.9 mL/cm^3
* Cc1ccccc1C(=CCCN1CCCC(C(=O)O)C1)c1ccccc1[18F] (stereo not shown) [^18F-GATT-44] | 1.7 mL/cm^3
